Target: T1, 4H656-AA
T1 chain: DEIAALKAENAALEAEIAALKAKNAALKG
Experiment: two-hybrid library CCmax;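 further: natural log of median RNA to DNA barcode read ratio; higher means stronger binding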
Details: mean of both orientations
quantity_kind: interaction score

[
  {
    "binder": "DEIAALEAKNAALEAEIAALEAKNAALEG [4H391-AA]",
    "quantity_kind": "interaction score",
    "endpoint_result": -0.583
  },
  {
    "binder": "DKIAALKAKNAALEAKIAALKAKNAALEG [4H2991-AA]",
    "quantity_kind": "interaction score",
    "endpoint_result": -0.731
  },
  {
    "binder": "DKNAALKAEIAALEAEIAALEAKNAALEG [4H3591-AA]",
    "quantity_kind": "interaction score",
    "endpoint_result": -0.984
  },
  {
    "binder": "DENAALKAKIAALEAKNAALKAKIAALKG [4H1854-AA]",
    "quantity_kind": "interaction score",
    "endpoint_result": 0.553
  }
]
